Target or system: GST A1-1 (Homo sapiens)
Sequence (P08263 1-222): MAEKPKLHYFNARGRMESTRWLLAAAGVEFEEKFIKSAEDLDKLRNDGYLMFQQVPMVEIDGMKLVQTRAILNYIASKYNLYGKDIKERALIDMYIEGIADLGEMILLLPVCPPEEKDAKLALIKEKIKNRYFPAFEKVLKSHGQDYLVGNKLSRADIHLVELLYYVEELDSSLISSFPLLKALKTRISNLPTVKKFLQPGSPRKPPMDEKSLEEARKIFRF
Assay endpoint: pIC50
Please report pIC50 as the negative decimal logarithm of the molar concentration, giving only the number.

See these solved cases before continuing.
[
  {
    "Given smiles": "O=C(O)CCSc1ccc([N+](=O)[O-])c2nonc12",
    "pIC50": 4.18
  },
  {
    "Given smiles": "O=[N+]([O-])c1ccc(Sc2ccc(O)cc2)c2nonc12",
    "pIC50": 5.19
  },
  {
    "Given smiles": "O=[N+]([O-])c1ccc(SCCCCCCO)c2nonc12",
    "pIC50": 4.60
  }
]

# get_value(readout= pIC50, system= GST A1-1 (Homo sapiens)) for O=[N+]([O-])c1ccc(Sc2ncc[nH]2)c2nonc12
4.96
